Tested on: OVCAR-5 ovarian
Assay: NCI-60 one-dose screen, 48 h (100 = growth as untreated, 0 = no growth, -100 = all killed)
Settings: 10 µM unless noted
About 83,000 compounds went through this panel and 20% of them were active in at least one assay; those are over-represented in the sample as a whole.
OUTCOME MEASURE: growth (%)
Reply numerically in %, unit not repeated.

A selection of reference data follows.
1. Cc1sc(N=Nc2ccc(N(C)C)cc2)[n+]([O-])c1C: 107
2. COc1cc(C2C3=C(COC3=O)Nc3c2ccc2c3CCCC2)cc2c1OCO2 (stereo unspecified): 42.8
3. CCN(CC)P(=O)(N(CC)CC)N(CCCSC/C=C(\C)CC/C=C(\C)CCC=C(C)C)CCCN1CCN(C)CC1: 103

Query: Consider the compound shown here: `C=C1C(=O)O[C@H]2[C@H]1CC/C(COC(=O)NCCc1cccc(OC)c1)=C\CC[C@@]1(C)O[C@@H]21` What is its recorded growth?
Reply: 75.1

Query: Which measured growth value corresponds to `CC(=O)c1cc(C(=O)c2ccc3c(c2)Sc2ccccc2N3)c2cc(C)ccn12` ?
Reply: 41.2

Query: Quick one: growth for `COc1ccc2c(c1)C(=O)/C(=C/c1ccc(O)cc1)O2` ?
Reply: 103

Query: growth; subject: `C=C1C(=O)O[C@H]2[C@H]1CC/C(Cn1cc(-c3ccccc3C(F)(F)F)nn1)=C\CC[C@@]1(C)O[C@@H]21`
Reply: -18.6

Query: May I ask what growth has been recorded for `CC(=O)Oc1cccc(OC(C)=O)c1OC(C)=O` ?
Reply: 99.9

Query: Value lookup for growth; key = `C=CC(=O)N[C@H](/C=C/C(=O)OCC)Cc1ccc(-c2cc(Cl)cc(Cl)c2)cc1`
Reply: 95.5

Query: Quick one: growth of CCCCOc1nc2c(C)cccc2cc1C1CNC(=O)c2ccccc2N1 (stereo unspecified) ?
Reply: 112

Query: Any idea what growth was measured for `COc1cccc(/C=C/c2c(C(=O)O)cccc2[N+](=O)[O-])c1OC` ?
Reply: 103

Query: What growth value was documented for this compound, `O=C(CSc1nc(-c2ccc(Cl)cc2)cn1-c1ccc(Cl)cc1)c1ccc(Br)cc1` ?
Reply: 84.1

Query: Please give the measured growth for this compound: `CCCCCCc1nc2c(c(C)nn2-c2ccccc2)c2c1CCCCC2`
Reply: 114

---

System: UO-31 renal
Test: NCI-60 one-dose screen, 48 h
Conditions: 10 µM unless noted
Compounds without any hit were thinned out: in the full panel of roughly 83,000, 20% have a hit. Activity calls are given as the source filed them. How the source made its calls: active means growth percent below 10; inactive means the rest.
Outcome field: choose from class 1 for active, class 0 for inactive

Example cases with answers are listed next.
1. COC1=CC(c2ccc[nH]2)=N/C1=C\c1[nH]c(C)c(C(=O)CCCCC(=O)Nc2ccccc2)c1C: class 0
2. Cc1ccc(S(=O)(=O)OC2COCOC2C(OS(=O)(=O)c2ccc(C)cc2)C2OCOCC2OS(=O)(=O)c2ccc(C)cc2)cc1 (stereo unspecified): class 0
3. CCSc1nnc(NC(=O)COc2ccc(Cl)cc2C)s1: class 0

Query: Per the assay record, what outcome was assigned to `CCCn1c(=S)sc2c(Cl)nc(C)nc21` ?
Reply: class 0

Query: In this assay, the call recorded for `c1cncc(CNc2ccccc2-c2nnc(Nc3ccc4c(c3)OCCO4)o2)c1` was what?
Reply: class 0

Query: Which outcome was assigned to `COc1ccc(-c2nc3sccn3c2-c2ccnc(NCCNS(=O)(=O)c3ccc(C(F)(F)F)cc3)n2)cc1` in this test?
Reply: class 0

Query: // outcome(item) with item = `COc1ccc(C(=O)/C=C/c2ccc(/C=C/c3cc(OC)c(OC)c(OC)c3)cc2)cc1`
Reply: class 0

Query: How did this test come out for `CC/C=C\C[C@H](O)C/C=C1/C(=O)C(Cl)=C[C@@H]1C/C=C\CCCC(=O)OC` ?
Reply: class 1

Query: # lookup: test call for `COc1cccc(-n2cc(-c3nc(Cl)c4ccccc4n3)nn2)c1`
Reply: class 0

Query: Please let me know the test result on file for `O=C1OC(c2ccccc2)=N/C1=C\c1ccc([N+](=O)[O-])cc1` .
Reply: class 0

Query: Could you check what this test reported for `CCCOC(=O)C1(O)CCCC1` ?
Reply: class 0

---

System: NCI-H460 lung
Experiment: NCI-60 one-dose screen, 48 h
Settings: 10 µM unless noted
Compounds without any hit were thinned out: in the full panel of roughly 83,000, 20% have a hit. The source made the active and inactive calls. Rule for the calls: active = growth percent below 10; inactive = the rest.
Returns: one label drawn from T (active), F (inactive)

1. CN1CCN(CCCOc2ccc3nc(Nc4ccc(C(F)(F)F)c(Cl)c4)ccc3c2)CC1: T
2. Cc1ccc(-c2csc3nc(C)c(CCCl)c(=O)n23)cc1: F
3. CCN1C(=O)N(CC)C2Nn3c(s/c(=C\c4cccc(F)c4)c3=O)=NC21 (centres undefined): F

Consider the additional compound presented here.
Query: What classification did `Cc1ccc(Oc2nc3ccccc3cc2-c2nnc(Cn3c(COc4ccccc4)nc4ccccc43)o2)cc1` end up with in this test?
Reply: F

---

Test system: NCI-H460 lung
Assay: NCI-60 one-dose screen, 48 h (100 = growth as untreated, 0 = no growth, -100 = all killed)
Settings: 10 µM unless noted
The panel holds about 83,000 compounds, 20% with a hit somewhere; the sample as a whole holds those more often.
Entries and their growth
Response body: numeric value in %, unit text excluded.

1) Cc1c(C2=NNC(c3ccc4c(c3)OCO4)C2)[n+]([O-])c2ccccc2[n+]1[O-] (centres undefined): 111
2) C#CCC1(c2ccc(F)c(F)c2)NS(=O)(=O)c2ccccc21 (centres undefined): 108
3) COc1cc(-c2csc(NC(=O)Nc3ccc(Cl)cc3Cl)n2)cc(OC)c1OC: 10.3
4) CC(=O)Nc1nc(C(=O)N2N=C(C)/C(=C/c3cccs3)C2=O)cs1: 107
5) NCCSC(c1ccccc1)(c1ccccc1)c1ccccc1: 7.06

Query: Report growth for `CCC(=O)Oc1cc(/C=C/C(=O)O[C@H]2C[C@H]3CN4CCc5c([nH]c6cc(OC)ccc56)[C@@H]4C[C@@H]3[C@@H](C(=O)OC)[C@@H]2OC)ccc1OC` please.
Reply: 93.5

Query: Which growth is listed for CC(=O)Nc1ccc(S(=O)(=O)N2C(=O)CCC2C(=O)Nc2ccccc2)cc1 (centres undefined) ?
Reply: 15.1

Query: Using the record for `O=C(NNC(=S)Nc1ccccc1)c1ccccn1` , report its growth.
Reply: 21.2

Query: What measured growth goes with `COc1ccc(C(=O)c2cc(OC)c(OC)c(OC)c2)cc1/C=C/C(=O)c1ccc(OC)c(OC)c1` ?
Reply: 18.4

Query: Please look up its growth: `CSc1nc(-c2cc3ccccc3o2)cc(-c2ccc(Cl)cc2)c1C#N`
Reply: 24

Query: growth; subject: `COc1cccc(-n2cc(-c3nc(Cl)c4ccccc4n3)nn2)c1`
Reply: 107

Query: Query (compound): `CSc1ccccc1C#C/C=C\C#Cc1ccccc1N1CCCC1=O` ; field requested: growth
Reply: 24.7

Query: Which growth value is on record for O=C(CC(O)c1ccncc1)c1ccccc1 (centres undefined) ?
Reply: 102

Query: growth; subject: `CCOc1ccc(/C=C/C=N/NC(N)=S)cc1`
Reply: 96

---

System: COLO 205 colon
Assay: NCI-60 one-dose screen, 48 h
Conditions: 10 µM unless noted
About 83,000 compounds went through this panel and 20% of them were active in at least one assay; those are over-represented in the sample as a whole. Activity calls are given as the source filed them. Rule for the calls: active = growth percent below 10; inactive = the rest.
Hi there, use one of these labels in your reply, thanks! Yes (active), No (inactive)

Here are 2 compounds together with their reported answers.
1. COc1cc(Cn2c(SCC(=O)Nc3ccc(Cl)cc3)nc3ccccc3c2=O)cc(OC)c1OC: No
2. CNC(=O)Cc1nc(-c2cccc(NS(=O)(=O)c3c(F)cccc3F)c2F)c(-c2ccnc(Nc3ccccc3)n2)s1: Yes

--- query ---
Query: Tell me the recorded outcome of this test for `Cn1c(=O)c2c(nc3n2CCN(CCc2ccc(OCCN4CCOCC4)cc2)C3)n(C)c1=O` .
Reply: No

---

Tested on: SF-539 CNS
Test: NCI-60 one-dose screen, 48 h
Settings: 10 µM unless noted
About 83,000 compounds went through this panel and 20% of them were active in at least one assay; those are over-represented in the sample as a whole. Activity calls are given as the source filed them. Rule for the calls: active = growth percent below 10; inactive = the rest.
Just give me one of these, please: label 1 = active, label 0 = inactive

Take a look at these entries with their results.
1. O=C(c1ccncc1)N1N=C(c2ccc(Cl)cc2)CC1c1c[nH]c2ccccc12 (stereo not drawn): label 0
2. O=c1[nH]c(CN2CCN(c3ccccc3F)CC2)nc2sc3c(c12)CCC3: label 0
3. O=C1Nc2cc(Cl)ccc2/C1=C/c1ccc(N2CCOCC2)s1: label 0
4. CCCCCCc1nc2c(c(C)nn2-c2ccccc2)c2c1CCCCC2: label 0
5. O=C(c1c[nH]c2ccccc12)C(Sc1nc2ccccc2c(=O)[nH]1)c1ccccc1 (stereo not drawn): label 0

Query: Recorded call for `COc1ncc(-c2ccc3ncnc(Nc4cccc(Cl)c4)c3c2)cc1N(S(C)(=O)=O)S(C)(=O)=O` ?
Reply: label 0

Query: Assay result, entry `COc1cc(NCCCN=C(N)NC(N)=NC(C)C)c2ncccc2c1` — outcome?
Reply: label 0

Query: What is the recorded call for this compound in the test? `Clc1nc(-c2cccnc2)nc2sc3c(c12)CCCCCC3`
Reply: label 0

Query: Please let me know the test result on file for CCCCC(N)(C(=O)O)C1CCCC1 (stereo not drawn) .
Reply: label 0

Query: Which outcome was entered for the compound `CCCCCC/C=C\CCCCCCCCOc1ccc(CCOP(=O)(O)OCC[N+](C)(C)C)cc1` in this test?
Reply: label 0

Query: Field: outcome | Entry: `O=C(/C=C/c1ccccc1)n1c(-c2ccc(Cl)cc2)nc2ccccc21`
Reply: label 1

Query: GET /call?item= `Cc1cc2c(C(C)C)c(O)c(O)c(C=NCCCCC(=O)O)c2c(O)c1-c1c(C)cc2c(C(C)C)c(O)c(O)c(C=NCCCCC(=O)O)c2c1O` returns the recorded outcome of this test.
Reply: label 0

Query: // return assay outcome for `CC[C@H](C)[C@H]1NC(=O)[C@@H](N[C@](C)(O)[C@@H](N)CC(C)C)[C@@H](C)OC(=O)[C@H](Cc2ccc(OC)cc2)N(C)C(=O)[C@@H]2CCCN2C(=O)[C@H](CC(C)C)NC(=O)[C@@H](C)C(=O)[C@H](C(C)C)OC(=O)C[C@@H]1O`
Reply: label 1

Query: Each compound tested received a call. Report the one for `CCOP(=O)(CCN1CCN(CCCCCOc2cc3c(cc2OC)C(=O)N2CCC[C@H]2C=N3)CC1)OCC` .
Reply: label 0

Query: Hi, do you know how `Cc1oc2nc[nH]c(=O)c2c1C(=O)/C=C/c1ccc(Cl)cc1Cl` came out in this test?
Reply: label 0

Query: What did the test return for `O=C(CNc1c(Cl)cccc1Cl)Nc1ccc(-c2nc3ccccc3s2)cc1` ?
Reply: label 0

Query: Kindly provide the recorded test outcome for the following compound: `CCC#CC[C@H]1C/C=C2/C(=O)C=C[C@@H]2C/C=C\CCCC(=O)O1`
Reply: label 1

Query: Name the outcome recorded for `Cc1cc2c(C(C)C)c(O)c(O)c(C=NCCCCCCC(=O)O)c2c(O)c1-c1c(C)cc2c(C(C)C)c(O)c(O)c(C=NCCCCCCC(=O)O)c2c1O` in the assay.
Reply: label 0

Query: Per the records of this test, what outcome belongs to `O=Nc1c(-c2c(O)[nH]c3ccc([N+](=O)[O-])cc23)[nH]c2ccc(O)cc12` ?
Reply: label 1

Query: Check the results log: what was the call for CC(Br)C(OC(=O)c1ccccc1Cl)c1cc2c(cc1Br)OCO2 (stereo not drawn) ?
Reply: label 0

Query: Status in this test for `COc1cccc(/C=C/c2c(C(=O)O)cccc2[N+](=O)[O-])c1OC` ?
Reply: label 0

Query: Tell me the assay call for `Cc1cc(C(=O)O)c(N)c(C)n1` please.
Reply: label 0

Query: For this compound, state the assay outcome: CCC(c1cccc(Br)c1)C(C(=O)O)c1ccc(OC)cc1 (stereo not drawn)
Reply: label 0
